# protocol-description: Cytotoxicity against African green monkey COS7 cells assessed as inhibition of cell growth at 50 uM relative to control
# Format: cell-based
# run-parameters: chlorocebus aethiops, COS-7 cells
Given measured inhibition at 50 µM, output met if it is greater than or equal to 30% and not met if not.

Request: Is reported inhibition at 50 µM greater than or equal to 30% here: CC(C)(C)NC(=O)C1c2cccc(c2)-c2ccc(cc2)OCc2cn(nn2)CCCOc2ccc(cc2)CC(=O)N1Cc1ccccc1 (stereo unspecified)
Result: met

Request: Is reported inhibition at 50 µM greater than or equal to 30% here: O=C(NC1CCCCC1)C1c2cccc(c2)-c2ccc(cc2)OCc2cn(nn2)CCCCOc2ccc(cc2)CC(=O)N1c1ccc(C(F)(F)F)cc1 (stereo unspecified)
Result: met

Request: Is reported inhibition at 50 µM greater than or equal to 30% here: CC(C)c1ccc(N2C(=O)Cc3ccc(cc3)OCCn3cc(nn3)COc3ccc(cc3)-c3cccc(c3)C2C(=O)NC2CCCCC2)cc1 (stereo unspecified)
Result: met

Request: Is reported inhibition at 50 µM greater than or equal to 30% here: CCCCCCCCCCCCNC(=O)C1c2cccc(c2)-c2ccc(cc2)OCc2cn(nn2)CCCCOc2ccc(cc2)CC(=O)N1c1ccc(C(F)(F)F)cc1 (stereo unspecified)
Result: not met

Request: Is reported inhibition at 50 µM greater than or equal to 30% here: CCCCCCCCCCCCNC(=O)C1c2cccc(c2)-c2ccc(cc2)OCc2cn(nn2)CCCOc2ccc(cc2)CC(=O)N1c1ccc(C(F)(F)F)cc1 (stereo unspecified)
Result: not met

Request: Is reported inhibition at 50 µM greater than or equal to 30% here: CCCCCCCCCCCCNC(=O)C1c2cccc(c2)-c2ccc(cc2)OCc2cn(nn2)CCOc2ccc(cc2)CC(=O)N1c1ccc(C(F)(F)F)cc1 (stereo unspecified)
Result: met

Attribution: ChEMBL document CHEMBL4813986
